Overview of reported IC50 across a group of compounds:
Target: cdc2/cyclinB (Homo sapiens)
Sequence (P06493 whole entry): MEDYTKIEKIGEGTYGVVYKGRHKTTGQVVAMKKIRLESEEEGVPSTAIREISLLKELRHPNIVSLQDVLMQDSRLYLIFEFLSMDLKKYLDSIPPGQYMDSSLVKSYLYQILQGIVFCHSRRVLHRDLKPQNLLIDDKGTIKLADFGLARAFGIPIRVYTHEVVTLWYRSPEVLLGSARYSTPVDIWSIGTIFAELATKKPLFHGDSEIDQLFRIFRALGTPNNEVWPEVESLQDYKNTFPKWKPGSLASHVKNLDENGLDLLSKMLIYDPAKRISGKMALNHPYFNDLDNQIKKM
Sequence (P14635 whole entry, further chain): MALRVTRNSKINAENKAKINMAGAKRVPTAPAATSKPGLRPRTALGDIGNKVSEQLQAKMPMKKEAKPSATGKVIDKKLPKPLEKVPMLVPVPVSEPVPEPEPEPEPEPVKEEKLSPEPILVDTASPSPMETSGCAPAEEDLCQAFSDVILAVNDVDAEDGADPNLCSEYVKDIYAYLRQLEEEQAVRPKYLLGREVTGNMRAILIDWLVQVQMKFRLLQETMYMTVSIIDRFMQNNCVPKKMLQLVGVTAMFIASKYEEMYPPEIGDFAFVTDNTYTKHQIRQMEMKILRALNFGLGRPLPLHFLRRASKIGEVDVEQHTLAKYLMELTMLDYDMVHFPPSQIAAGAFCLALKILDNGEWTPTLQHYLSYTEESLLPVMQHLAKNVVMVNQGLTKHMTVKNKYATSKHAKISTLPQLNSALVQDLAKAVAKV
Assay: Cyclin-Dependent Kinase Assay cdc2/cyclinB
Format: biochemical
observedProperty: IC50

>  <compound>
CN1CCN(c2ccc(Nc3ncc4c(n3)N(C)C(=O)NC4)cc2)CC1

>  <observedProperty>
IC50

>  <recordedResult>
> 40 µM

$$$$
>  <compound>
CC(C)N1C(=O)NCc2cnc(Nc3ccc(N4CCC(O)CC4)cc3)nc21

>  <observedProperty>
IC50

>  <recordedResult>
> 40 µM

$$$$
>  <compound>
COc1ccc(Nc2ncc3cnc(=O)n(C4CCCC4)c3n2)cc1

>  <observedProperty>
IC50

>  <recordedResult>
4.76 µM

$$$$
>  <compound>
O=c1ncc2cnc(Nc3ccc(N4CCCC(O)C4)cc3)nc2n1C1CCCC1 (stereo not shown)

>  <observedProperty>
IC50

>  <recordedResult>
8.54 µM

$$$$

Where these numbers come from: patent EP1801112A1
